Test: Inhibition of HIV1 Vif to human A3G protein-protein interaction
pIC50: −log10 of the molar value.

{"compound": "COc1ccc(C(=O)Nc2cc(OC)c(OC)c(OC)c2)cc1NC(=O)C(C)Br (configuration not stated)", "pIC50": 7.77}
{"compound": "COc1ccc(C(=O)Oc2cc(OC)c(OC)c(OC)c2)cc1NC(=O)C(C)Br (configuration not stated)", "pIC50": 7.77}
